Values from PubChem BioAssay (NCI)

Collected TGI values appear next to each entry.
Test system: SK-MEL-2 melanoma
procedure.summary: NCI tumour cell line growth inhibition, 48 h

// known answers, use as guide
[
  {
    "compound": "COC(=O)C1CCOC(C)N1C(=O)OC(C)(C)C (configuration not stated)",
    "TGI": "> 100 µM"
  },
  {
    "compound": "COC(=O)CC1C(COC(C)=O)OC(n2cc(C)c(=O)[nH]c2=O)C1OC(C)=O (configuration not stated)",
    "TGI": "> 100 µM"
  },
  {
    "compound": "O=C(c1ccco1)N(Cc1ccco1)C(=S)Nc1ccccc1",
    "TGI": "42.9 µM"
  },
  {
    "compound": "CC(=O)N1CN2C(=O)CCC2c2ccccc21 (configuration not stated)",
    "TGI": "> 100 µM"
  },
  {
    "compound": "Cc1c(C#N)c2ccccc2c2nc3ccccc3n12",
    "TGI": "> 100 µM"
  },
  {
    "compound": "C1=Nc2ccc(cc2)N=Cc2ccc(cc2)OCc2cccc(n2)COc2ccc1cc2",
    "TGI": "> 100 µM"
  }
]

Okay, next one:
According to the records, this compound CCCCOc1ccc(NC(=O)n2nc(N)c3ccccc32)cc1 displays TGI of 76 µM

* * *

Test system: MDA-N
procedure.summary: NCI tumour cell line growth inhibition, 48 h
Collected TGI values appear next to each entry.

// known answers, use as guide
[
  {
    "molecule": "Cc1ncc([N+](=O)[O-])n1CCN(C)C(=O)CCCn1ccnc1[N+](=O)[O-]",
    "TGI": "> 100 µM"
  },
  {
    "molecule": "CC(=O)Oc1c(C)c2c(O)c3c1C1=C(OCOC1=C(C)C3=O)/C(C)=C\\C(C)(O)C(O)C(C)C(O)C1C(=O)OC(C(C)C1O)C(C)(O)/C=C/C=C(C)C(=O)N2 (centres undefined)",
    "TGI": "> 100 µM"
  },
  {
    "molecule": "O=C(C[C@H](NC(=O)OCc1ccccc1)C(=O)NC1Cc2ccccc2OC1=O)OCc1ccccc1 (some centres undefined)",
    "TGI": "> 100 µM"
  },
  {
    "molecule": "O=Cc1c2ccccc2n2ccc3c4ccccc4[nH]c3c12",
    "TGI": "> 10 µM"
  }
]

According to the records, this molecule CCCCCCNC(=O)c1cc(CCc2cc(O)ccc2O)ccc1O displays TGI of 9.54 µM

According to the records, this molecule N#Cc1c(NC(=S)Nc2ccc(Cl)cc2)sc2c1CCCC2 displays TGI of > 100 µM

* * *

Collected TGI values appear next to each entry.
Tested on: COLO 205 colon
procedure.summary: NCI tumour cell line growth inhibition, 48 h

// known answers, use as guide
[
  {
    "compound": "CCN1C=C/C(=C\\C=C/c2cc[n+](CC)c3ccccc23)c2ccccc21",
    "measured.endpoint": "TGI",
    "endpoint.result": "17 µM"
  },
  {
    "compound": "COc1cc2c(cc1O)-c1c(cnn1-c1ccc([N+](=O)[O-])cc1)CCC2",
    "measured.endpoint": "TGI",
    "endpoint.result": "38.1 µM"
  },
  {
    "compound": "COC(=O)C1=C(C(=O)OC)C(Cc2ccccc2)(OO)OC1=O (stereo not given)",
    "measured.endpoint": "TGI",
    "endpoint.result": "> 100 µM"
  },
  {
    "compound": "CCOc1ccc(-c2cnnn2-c2nonc2-n2cccc2)cc1",
    "measured.endpoint": "TGI",
    "endpoint.result": "0.808 µM"
  },
  {
    "compound": "Clc1cc2c(cc1Cl)Oc1cc(Cl)c(Cl)cc1O2",
    "measured.endpoint": "TGI",
    "endpoint.result": "> 0.625 µM"
  },
  {
    "compound": "COc1ccc(NC(=O)CC(=O)N2N=C(N(CCC#N)c3ccccc3Cl)CC2c2ccccc2)cc1 (stereo not given)",
    "measured.endpoint": "TGI",
    "endpoint.result": "> 100 µM"
  },
  {
    "compound": "O=C(CC(=O)Nc1cccc(Cl)c1)NNCC(=O)Nc1nnc(-c2ccccc2)s1",
    "measured.endpoint": "TGI",
    "endpoint.result": "> 100 µM"
  },
  {
    "compound": "COc1ccc2c(c1)=C(C=C1C=CN(O)C=C1)C(=O)N=2",
    "measured.endpoint": "TGI",
    "endpoint.result": "32.8 µM"
  },
  {
    "compound": "COC(=O)C1CCC(Nc2ccc(C)cc2C)=N1 (stereo not given)",
    "measured.endpoint": "TGI",
    "endpoint.result": "> 100 µM"
  },
  {
    "compound": "C/C=C/C1=C(Cl)C(=O)[C@@H](Cl)[C@@]1(O)C(=O)OC",
    "measured.endpoint": "TGI",
    "endpoint.result": "3.22 µM"
  }
]

According to the records, this compound CCCCCCNC(=O)c1cc(CCc2cc(O)ccc2O)ccc1O displays TGI of 41.6 µM

According to the records, this compound COc1cc(/C=N/n2c(Cc3ccc(Cl)cc3)n[nH]c2=O)cc(OC)c1OC displays TGI of > 100 µM

According to the records, this compound COc1cc2c3c(n(CCCN(CCN)CCCn4c5c(c6cc(OC)c(OC)cc6c4=O)C(=O)c4cc6c(cc4-5)OCO6)c(=O)c2cc1OC)-c1cc2c(cc1C3=O)OCO2 displays TGI of > 57 µM

According to the records, this compound CCC1C(=O)OCc2c1cc1n(c2=O)Cc2cc3ccccc3nc2-1 (stereo not given) displays TGI of > 100 µM

According to the records, this compound Cn1ccc(C(=O)N2CCSC2=S)c(OCc2ccccc2)c1=O displays TGI of > 100 µM

According to the records, this compound CCOC(O)(NC(=O)C(C(F)(F)F)C(F)(F)F)C(F)(F)F (stereo not given) displays TGI of > 100 µM

According to the records, this compound O=C1Cc2c([nH]c3c(Cl)cccc23)-c2ccccc2N1 displays TGI of > 100 µM

According to the records, this compound COc1ccc(/C=C2\C(=O)N(C)C(=O)c3cc(OC)c(OC)cc32)cc1OC displays TGI of 47.9 µM

According to the records, this compound C=[N+](CNC(=O)CNC(=O)C(Cc1ccc([N+](=O)[O-])cc1)NC(=O)OC(C)(C)C)C(=O)CNC(=O)C(Cc1ccc([N+](=O)[O-])cc1)NC(=O)OC(C)(C)C (stereo not given) displays TGI of > 100 µM

According to the records, this compound C1=Nc2ccc(cc2)N=Cc2ccc(cc2)OCc2cccc(n2)COc2ccc1cc2 displays TGI of > 100 µM

* * *

System: SR leukemia
procedure.summary: NCI tumour cell line growth inhibition, 48 h
Collected TGI values appear next to each entry.

// known answers, use as guide
[
  {
    "molecule": "COc1ccc(C2CC(c3cccc(Nc4ccncc4)c3)=NN2c2ccc(Cl)cc2)cc1 (stereo unspecified)",
    "TGI": "3.38 µM"
  },
  {
    "molecule": "[Cl][Sn]([Cl])([c]1ccccc1)[c]1ccccc1",
    "TGI": "25.7 µM"
  },
  {
    "molecule": "O=C(Nc1ccc(F)cc1)Nc1ccccc1CNc1nc(Nc2ccc(OCCN3CCCC3)cc2)ncc1Cl",
    "TGI": "50 µM"
  }
]

According to the records, this molecule Cc1ccc(Cc2n[nH]c(=O)n2-c2ccccc2)cc1 displays TGI of > 100 µM

According to the records, this molecule CCOc1ccc(-c2cnnn2-c2nonc2-n2cccc2)cc1 displays TGI of 41.4 µM

According to the records, this molecule COc1cc(OC)cc(OCc2ccc3nc(-c4ccccc4)c(Cl)nc3c2)c1 displays TGI of 48 µM

According to the records, this molecule CC(C)[C@H]1CC[C@H]2[C@@H](CC[C@H]3[C@](C)(CN)CCC[C@]23C)C1 displays TGI of 15.2 µM

According to the records, this molecule Cc1noc2cccc(OCc3ccccc3)c12 displays TGI of > 100 µM

According to the records, this molecule O=C(Nc1ccccc1)c1nn(-c2cc(S(=O)(=O)O)c([N+](=O)[O-])cc2Cl)[n+](-c2cc(S(=O)(=O)[O-])c([N+](=O)[O-])cc2Cl)n1 displays TGI of > 100 µM

According to the records, this molecule N=C(N)c1ccc(OCCOCCOc2ccc(C(=N)N)cc2)cc1 displays TGI of > 100 µM

According to the records, this molecule CCCCCCCC(=O)NCC(O)CNC(=O)CCCCCCC displays TGI of > 100 µM

According to the records, this molecule O=C(C=Nc1ccccc1C(=O)[O-])c1cccs1.O=C(C=Nc1ccccc1C(=O)[O-])c1cccs1.[Co+2] displays TGI of > 100 µM

According to the records, this molecule Cc1ccccc1C1=[N+]([O-])c2ccccc2C1=O displays TGI of > 100 µM

According to the records, this molecule C/C=C1/CN2CCc3c([nH]c4ccccc34)[C@@H]2C[C@@H]1Cc1[nH]ccc2c1[nH]c1cc(=O)ccc12 displays TGI of > 100 µM

According to the records, this molecule COc1ccc(NC(=O)CC(=O)N2N=C(N(CCC#N)c3ccccc3Cl)CC2c2ccccc2)cc1 (stereo unspecified) displays TGI of > 100 µM

According to the records, this molecule Cn1ccnc1C(=O)/C=C/c1ccc(C(=O)Nc2ccc(S(F)(F)(F)(F)F)cc2)cc1 displays TGI of 10.3 µM

According to the records, this molecule Nc1ccc2nc(NCc3ccc(F)cc3)cnc2c1 displays TGI of > 100 µM

According to the records, this molecule CCCCCCCCCCCCCCCc1ccc(OCC(O)CO)cc1 (stereo unspecified) displays TGI of > 100 µM
